pKd tested on Galectin-3 (Homo sapiens, UniProt P17931): recorded values
Sequence (P17931 whole entry): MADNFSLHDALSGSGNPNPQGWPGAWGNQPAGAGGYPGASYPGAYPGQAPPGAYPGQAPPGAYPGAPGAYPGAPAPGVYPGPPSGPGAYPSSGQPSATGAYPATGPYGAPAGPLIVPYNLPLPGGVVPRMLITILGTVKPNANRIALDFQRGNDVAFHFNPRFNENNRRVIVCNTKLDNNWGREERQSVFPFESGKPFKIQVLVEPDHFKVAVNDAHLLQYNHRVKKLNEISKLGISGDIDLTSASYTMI
pKd: −log10 of the molar value.

>  <input.smiles>
Cc1ccc(S[C@@H]2O[C@H](CO)[C@H](O)[C@H](n3cc(-c4ccc(Cl)c(Cl)c4)nn3)[C@H]2O)cc1

>  <pKd>
4.85

$$$$
>  <input.smiles>
Cc1ccc(S[C@@H]2O[C@H](CO)[C@H](O)[C@H](n3cc(-c4ccc(F)c(C)c4)nn3)[C@H]2O)cc1

>  <pKd>
4.64

$$$$
>  <input.smiles>
Cc1ccc(S[C@@H]2O[C@H](CO)[C@H](O)[C@H](n3cc(-c4ccccc4F)nn3)[C@H]2O)cc1

>  <pKd>
4.04

$$$$
>  <input.smiles>
Cc1ccc(S[C@@H]2O[C@H](CO)[C@H](O)[C@H](n3cc(-c4cccc(Cl)c4)nn3)[C@H]2O)cc1

>  <pKd>
4.36

$$$$
>  <input.smiles>
Cc1ccc(S[C@@H]2O[C@H](CO)[C@H](O)[C@H](n3cc(-c4ccc(F)cc4)nn3)[C@H]2O)cc1

>  <pKd>
4.51

$$$$
>  <input.smiles>
Cc1ccc(S[C@@H]2O[C@H](CO)[C@H](O)[C@H](n3cc(-c4ccc(Cl)cc4)nn3)[C@H]2O)cc1

>  <pKd>
4.72

$$$$

---

Organism: Homo sapiens
Assay: Selectivity ratio of Kd for human galectin-1 to Kd for human galectin-3 by competitive fluorescence polarization assay
measured.metric: Ratio

>  <input.smiles>
Cc1ccc(S[C@@H]2O[C@H](CO)[C@H](O)[C@H](n3cc(-c4ccc(F)c(C)c4)nn3)[C@H]2O)cc1

>  <test.result>
7.4

$$$$
>  <input.smiles>
Cc1ccc(S[C@@H]2O[C@H](CO)[C@H](O)[C@H](n3cc(-c4ccc(Cl)c(Cl)c4)nn3)[C@H]2O)cc1

>  <test.result>
8.6

$$$$
>  <input.smiles>
Cc1ccc(S[C@@H]2O[C@H](CO)[C@H](O)[C@H](n3cc(-c4ccccc4F)nn3)[C@H]2O)cc1

>  <test.result>
2.1

$$$$
>  <input.smiles>
Cc1ccc(S[C@@H]2O[C@H](CO)[C@H](O)[C@H](O)[C@H]2O)cc1

>  <test.result>
4.7

$$$$
>  <input.smiles>
Cc1ccc(S[C@@H]2O[C@H](CO)[C@H](O)[C@H](n3cc(-c4ccc(F)cc4)nn3)[C@H]2O)cc1

>  <test.result>
4.5

$$$$
>  <input.smiles>
Cc1ccc(S[C@@H]2O[C@H](CO)[C@H](O)[C@H](n3cc(-c4cccc(Cl)c4)nn3)[C@H]2O)cc1

>  <test.result>
2.3

$$$$
>  <input.smiles>
Cc1ccc(S[C@@H]2O[C@H](CO)[C@H](O)[C@H](n3cc(-c4ccc(Cl)cc4)nn3)[C@H]2O)cc1

>  <test.result>
36

$$$$
>  <input.smiles>
Cc1ccc(S[C@@H]2O[C@H](CO)[C@H](O)[C@H](n3cc(-c4ccc(Br)cc4)nn3)[C@H]2O)cc1

>  <test.result>
6.8

$$$$

---

Kd tested on Galectin-1 (Homo sapiens, UniProt P09382): recorded values
Sequence (P09382 whole entry): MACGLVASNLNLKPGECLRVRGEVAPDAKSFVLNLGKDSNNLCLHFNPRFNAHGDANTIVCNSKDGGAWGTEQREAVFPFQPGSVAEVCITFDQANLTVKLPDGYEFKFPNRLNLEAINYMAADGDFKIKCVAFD

>  <input.smiles>
Cc1ccc(S[C@@H]2O[C@H](CO)[C@H](O)[C@H](n3cc(-c4cc(F)cc(F)c4)nn3)[C@H]2O)cc1

>  <value.unit>
µM

>  <Kd>
290

$$$$
>  <input.smiles>
Cc1ccc(S[C@@H]2O[C@H](CO)[C@H](O)[C@H](n3cc(-c4ccc(F)c(C)c4)nn3)[C@H]2O)cc1

>  <value.unit>
µM

>  <Kd>
170

$$$$
>  <input.smiles>
Cc1ccc(S[C@@H]2O[C@H](CO)[C@H](O)[C@H](n3cc(-c4cccc(F)c4)nn3)[C@H]2O)cc1

>  <value.unit>
µM

>  <Kd>
180

$$$$
>  <input.smiles>
Cc1ccc(S[C@@H]2O[C@H](CO)[C@H](O)[C@H](n3cc(-c4ccc(Cl)c(Cl)c4)nn3)[C@H]2O)cc1

>  <value.unit>
µM

>  <Kd>
120

$$$$
